Molecular target: acetylcholine receptor
Assay: SPR, AchR immobilised on CM5 chip, peptide at 10 uM
I'd be grateful if you could share measured Binding affinity (RU) for these entries.
Give the quantity in RU, number only.

Request: Entry KRRQTK [6mer-1-439] : reported Binding affinity (RU) = ?
Response: 121

Request: Moving on to the next binder: RRQRRK [6mer-1-429]
Response: 135

Request: Moving on to the next binder: KDCMK [5mer-879]
Response: 13
